test system: Pseudomonas aeruginosa strain H1001 fliC::luxCDABE; assay: Luminescence-based assay for the non-cleaved (bound) peptides on cellulose membranes; type: cell-based; settings: cellulose-bound peptide, 0 min
Ends that are not written are not given here.
Param threshold (5000 RLU) applies to Luminescence at the given time in minutes: 0; output Met when value >= threshold, Not met when value < threshold.

Record excerpt, results attached:
[[record]]
substance = "RVLIVIRARRVA-NH2 (C-terminus assumed) [Bac043]"
assigned_class = "Met"

[[record]]
substance = "IRARIAVRRVVL [Bac004]"
assigned_class = "Not met"

[[record]]
substance = "RRRAIVRVVAIL [Bac023]"
assigned_class = "Not met"

[[record]]
substance = "VLARVVARRIRI [Bac040]"
assigned_class = "Not met"

[[record]]
substance = "ARIARRVRILVV [Bac021]"
assigned_class = "Met"

[[record]]
substance = "VLIRIRRVARAV [Bac008]"
assigned_class = "Not met"


Kindly review the next substance as well.
Incoming: API: above_or_equal(metric=Luminescence at the given time in minutes: 0, cutoff=5000 RLU) for item VIRRRRILAAVV-NH2 (C-terminus assumed) [Bac044]
Outgoing: Met

---

system: Pseudomonas aeruginosa strain H1001 fliC::luxCDABE; experiment: Luminescence-based assay for the non-cleaved (bound) peptides on cellulose membranes; assay type: cell-based; details: cellulose-bound peptide, 20 min
Ends that are not written are not given here.
Overview of reported Luminescence at the given time in minutes: 20 across a group of substances:

As a guide, the following entries are already answered.
[[record]]
substance = "IRVRRLVAAVIR [Bac033]"
assay_result = "6539 RLU"

[[record]]
substance = "VVRALRRIIARV [Bac048]"
assay_result = "6505 RLU"

[[record]]
substance = "IIRAALRRVRVV [Bac009]"
assay_result = "6553 RLU"

[[record]]
substance = "RRVIAIAVRRLV [Bac050]"
assay_result = "6715 RLU"

[[record]]
substance = "AVRVRRRAILVI [Bac011]"
assay_result = "7019 RLU"


Incoming: Checklist item: Luminescence at the given time in minutes: 20 tested on Pseudomonas aeruginosa strain H1001 fliC::luxCDABE, entry ARAILIRVVRRV [Bac025] , value?
Outgoing: 6728 RLU

Incoming: Also need ARRLIVRVRVIA [Bac003] , thanks.
Outgoing: 5992 RLU

Incoming: Now try RAVAVIIRLRRV-NH2 (C-terminus assumed) [Bac014] .
Outgoing: 8217 RLU

---

system: Pseudomonas aeruginosa PAO1 strain H103; conditions: PAO1
Ends that are not written are not given here.
Measured quantity: MIC P. aerug (µg/mL)
Report only the number, with the unit µg/mL understood.

[[record]]
substance = "RLARIVVIRVAG-NH2 (C-terminus assumed) [Bac415]"
assay_system = "Pseudomonas aeruginosa PAO1 strain H103"
assay_result = 63


Alright, here's another substance for you.
Incoming: Bench note: what MIC P. aerug did RLARIVKIRVAR-NH2 (C-terminus assumed) [Bac323] show?
Outgoing: 31

---

test system: Pseudomonas aeruginosa strain H1001; assay: Assay for the cleaved (free, soluble) peptides from cellulose support, luminescence killing assay; type: cell-based; design: key: 1: Peptides showing stronger killing than Bac2A at a 4 to 8-fold higher dilution; Peptides showing stronger killing compared to that of Bac2A at a 4-fold higher dilution; 3: Peptides similar to Bac2A; 4: Peptides similar to Bac2A at the highest concentration but demonstrating weaker killing at a 2-fold dilution; 5: Peptides giving very weak or no killing at a 2-fold dilution; 6: Peptides with weak killing activity at the highest concentration; settings: free (cleaved) peptides, killing relative to Bac2A
Ends that are not written are not given here.
Measured quantity: Activity Class Soluble

Use the examples below as a reference point.
[[record]]
substance = "RAIRVRRIVLAV [Bac037]"
assay_result = 4

[[record]]
substance = "IRVRRLVAAVIR [Bac033]"
assay_result = 5

[[record]]
substance = "RLRVAIVAIVRR [Bac041]"
assay_result = 4

[[record]]
substance = "VLIRIRRVARAV [Bac008]"
assay_result = 2

[[record]]
substance = "VIVRLAARRVRI [Bac028]"
assay_result = 5

[[record]]
substance = "AVRAIRVLRVIR [Bac015]"
assay_result = 3

[[record]]
substance = "VLARVVARRIRI [Bac040]"
assay_result = 5

[[record]]
substance = "VIRRRRILAAVV-NH2 (C-terminus assumed) [Bac044]"
assay_result = 6


Incoming: Request body: readout Activity Class Soluble, system Pseudomonas aeruginosa strain H1001, query VARIVVRLIRAR [Bac013] . Return the value.
Outgoing: 3
